# Test system: HEK293T-Gα16gust44 cells transfected with empty vector (mock)
# measurement-description: Calcium imaging assay (FLIPR), empty vector control (mock)
# Format: cell-based
# study-conditions: Mock (sheet Tas2r144); conc. 0,1 mM
Each entry below carries its recorded Δ F/F.

Solved cases (3 shown):
[[record]]
compound = "C[C@H](CCC(=O)NCCS(=O)(=O)O)[C@H]1CC[C@H]2[C@@H]3CC[C@@H]4C[C@H](O)CC[C@]4(C)[C@H]3CC[C@]12C [Taurolithocholic Acid, taurolithocholic acid]"
obs_value = 0.004595

[[record]]
compound = "C[C@H](CCC(=O)NCC(=O)O)[C@H]1CC[C@H]2[C@@H]3[C@H](O)C[C@@H]4C[C@H](O)CC[C@]4(C)[C@H]3C[C@H](O)[C@]12C [Glycocholic Acid, glycocholic acid]"
obs_value = 0.001148

[[record]]
compound = "C[C@H](CCC(=O)O)[C@H]1CC[C@H]2[C@@H]3[C@H](O)C[C@@H]4C[C@H](O)CC[C@]4(C)[C@H]3C[C@H](O)[C@]12C [Cholic Acid, cholic acid]"
obs_value = -0.0009617


Query compound follows.
The compound C[C@H](CCC(=O)NCCS(=O)(=O)O)[C@H]1CC[C@H]2[C@@H]3[C@H](O)C[C@@H]4C[C@H](O)CC[C@]4(C)[C@H]3C[C@H](O)[C@]12C [Taurocholic Acid, taurocholic acid] showed Δ F/F equal to 0.003486
